Tested on: SK-MEL-5 melanoma
assay: NCI-60 one-dose screen, 48 h (100 = growth as untreated, 0 = no growth, -100 = all killed)
assay_context: 10 µM unless noted
Compounds without any hit were thinned out: in the full panel of roughly 83,000, 20% have a hit.
readout_name: growth (%)
Answers are plain numbers, in %.

Previously resolved entries follow.
compound	readout_name	observed_value
O=C(CCCCCCN1CC(=O)N2[C@@H](C3CCCCC3)c3[nH]c4ccccc4c3C[C@H]2C1=O)NO	growth	66
CC1(C)O[C@H]2OC3CCC(=O)CC3(O)[C@H]2O1 (stereo not given in full)	growth	98.8
Cc1ccc(/C=C/C(=O)c2ccc(NC(=O)CSc3nc4c([nH]3)c(=O)n(C)c(=O)n4C)cc2)c(C)c1	growth	69.5
C/C(C=O)=C\c1ccc2c(c1)OCO2	growth	105

# evaluate next
**Query** Find the recorded growth belonging to COc1ccc(NC(=O)c2sc3nc4c(cc3c2N)CCCC4)cc1 and report it.
**Result** 5.04
